Origin of the recorded values: paper PMC7462607

# Tested on: CCNK-luc reporter
# assay procedure: CCNK-luc degradation assay
# Type: cell-based, Homo sapiens
# stated conditions: 293T, 8 hr, read-out: DC50 (half maximal CCNK-degradation concentration)
Hi! Could you tag entries with DC50 below 500 nM as criterion met, and those at or above as criterion not met? Much appreciated.

Please review the entries below; each comes with its answer.
Cc1cnc(NC(=O)Cc2csc(Nc3cccc(C(F)(F)F)n3)n2)s1 criterion not met
Cc1cnc(NC(=O)Cc2csc(Nc3cccc(N)n3)n2)s1 criterion not met
Cc1cccc(Nc2nc(CC(=O)Nc3ncc(C)s3)cs2)n1 criterion met
Cc1cnc(NC(=O)Cc2csc(Nc3cccc(-n4cccn4)n3)n2)s1 criterion not met
Cc1cnc(NC(=O)Cc2csc(Nc3cccc(Cl)n3)n2)s1 criterion met
CCc1cccc(Nc2nc(CC(=O)Nc3ncc(C)s3)cs2)n1 criterion not met
Cc1cnc(NC(=O)Cc2csc(Nc3cccc(Br)n3)n2)s1 criterion met
Cc1cnc(NC(=O)Cc2csc(Nc3ccccn3)n2)s1 criterion not met
Cc1cnc(NC(=O)Cc2csc(Nc3cccc(F)n3)n2)s1 criterion met

Now look at this entry.
Please check: DC50 for COc1cccc(Nc2nc(CC(=O)Nc3ncc(C)s3)cs2)n1 , strictly under 500 nM or not?
criterion met

* * *

# Tested on: CDK12 G731E or G731R knock-in A549 cells
# assay procedure: Cell viability assay, CDK12 G731E or G731R knock-in A549 cells
# Assay type: cell-based
# stated conditions: Homo sapiens, four knock-in clones
parameter measured: IC50

If you can, please state the reported IC50 value of Cc1cccc(Nc2nc(CC(=O)Nc3ncc(C)s3)cs2)n1 .
25.2 to 36.5 µM

* * *

# Test system: A549 cells expressing sgRNAs (NTC, DDB1, RBX1, UBE2G1)
# assay procedure: Cell viability assay, A549 cells expressing non-targeting control or sgRNAs targeting DDB1, RBX1 or UBE2G1
# Assay type: cell-based, Homo sapiens
# stated conditions: Homo sapiens, A549, independent second sgRNA, Figure 1-figure supplement 2D; read-out: IC50 on the viability of A549 cells expressing sgRNA targeting DDB1
parameter measured: IC50

What IC50 appears in the records for this molecule with A549 cells expressing sgRNAs (NTC, DDB1, RBX1, UBE2G1)? Cc1cccc(Nc2nc(CC(=O)Nc3ncc(C)s3)cs2)n1
> 28.8 µM
